Molecular target: 5-hydroxytryptamine receptor 4 (Mus musculus, UniProt P97288)
Sequence (P97288 whole entry): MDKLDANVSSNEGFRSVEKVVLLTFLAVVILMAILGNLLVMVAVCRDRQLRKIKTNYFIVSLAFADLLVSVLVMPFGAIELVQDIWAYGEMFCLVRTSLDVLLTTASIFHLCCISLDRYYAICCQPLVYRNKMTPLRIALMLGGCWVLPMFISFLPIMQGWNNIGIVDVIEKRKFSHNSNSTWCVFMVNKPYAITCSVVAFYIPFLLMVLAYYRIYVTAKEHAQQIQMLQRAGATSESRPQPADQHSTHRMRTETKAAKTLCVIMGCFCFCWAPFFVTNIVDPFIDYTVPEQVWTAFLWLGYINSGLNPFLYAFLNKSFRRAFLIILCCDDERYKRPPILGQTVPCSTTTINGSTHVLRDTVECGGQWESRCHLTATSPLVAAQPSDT
result.type: log10 Ki (log10 of the value in nM)
Lab note - Ki converted to log10 from values in nM.

QUERY: Return value of log10 Ki for input CC(C)n1c(=O)n(C(=O)NC2C[C@H]3CC[C@@H](C2)N3C)c2ccccc21 (stereo not given in full) , no commentary.
RESULT: 1.40

QUERY: Please give the documented log10 Ki of `CCN(CC)CCOC(=O)c1cc(Cl)c(N)cc1OC`
RESULT: 0.80

QUERY: Read off the recorded log10 Ki for COc1ccc2[nH]c(=O)n(C(=O)OC3CC4CCC(C3)N4C)c2c1 (stereo not given)
RESULT: 1.43

QUERY: Return log10 Ki for the following compound: COc1cc(N)c(Cl)cc1C(=O)NC1CCN2CCCC1C2 (stereo not given)
RESULT: 1.99

QUERY: Give reported log10 Ki value for `COc1cc(N)c(Cl)cc1C(=O)NC1CCN(Cc2ccccc2)CC1`
RESULT: 1.73

* * *

Assay read-out Ki; system under study: 5-hydroxytryptamine receptor 4 (Mus musculus).
Write it as a number; the unit nM goes unstated.

QUERY: Supply measured Ki of `CCN(CC)CCNC(=O)c1cc(Cl)c(N)cc1OC` in your reply.
RESULT: 3980

QUERY: Please report the measured Ki for CN1C2CCC1CC(OC(=O)c1c[nH]c3ccccc13)C2 (centres undefined)
RESULT: 158

QUERY: For `COc1ccc2[nH]cc(CCN)c2c1` , write its Ki.
RESULT: 525

QUERY: Return value of Ki for input COc1cc(N)c(Cl)cc1C(=O)NC1CCN(CCCC(=O)N2CCC(N(C)C)CC2)CC1OC (centres undefined) , no commentary.
RESULT: 1.38

QUERY: Name the recorded Ki of the item NCCc1c[nH]c2ccc(O)cc12 [[3H]-5-HT] in your answer.
RESULT: 79.4

QUERY: Report measured Ki; entry is CCn1c(=O)n(C(=O)NC2CC3CCC(C2)N3C)c2ccccc21 (centres undefined)
RESULT: 53.7

QUERY: Quickly give me recorded Ki for CN1C2CCC1CC(NC(=O)n1c(=O)[nH]c3ccccc31)C2 (centres undefined)
RESULT: 224

QUERY: Tell me its Ki given CCCC[N+]12CCC(C1)C(NC(=O)c1cc(Cl)c(N)cc1OC)CC2 (centres undefined) as the entry.
RESULT: 37.1

QUERY: Using the record for `COc1ccc2[nH]cc(C3=CCCNC3)c2c1` , state its measured Ki.
RESULT: 603
